# maps each entry to its pIC50
Test system: NCI-H460
Test: Cytotoxicity assay (cell titer-glo and calcein AM), NCI-H460
Condition Info: read-out: Cytotoxicity IC50, NCI-H460, calcein; NCI-H460; calcein AM readout; % error in parentheses
pIC50: −log10 of the molar value.
Measurement Type: pIC50

- COc1cc2c(c(OC)c1OC)-c1ccc(OC)c(=O)cc1[C@@H](NC(=O)CN(OC)[C@@H]1O[C@H](CO)[C@@H](O)[C@H](F)[C@H]1O)CC2 [Col33, 3-fluoro-3-deoxy-D-glucoside]: < 5.00
- COc1cc2c(c(OC)c1OC)-c1ccc(OC)c(=O)cc1[C@@H](NC(=O)CN(OC)[C@@H]1O[C@H](CO)[C@H](O)[C@H](O)[C@H]1NC(C)=O)CC2 [Col28, N-acetyl-D-galactosaminoside]: < 5.00
- COc1cc2c(c(OC)c1OC)-c1ccc(OC)c(=O)cc1[C@@H](NC(=O)CN(OC)[C@@H]1OC[C@@H](O)[C@H](O)[C@H]1O)CC2 [Col4, D-xyloside]: < 5.00
- COc1cc2c(c(OC)c1OC)-c1ccc(OC)c(=O)cc1[C@@H](NC(=O)CN(OC)[C@@H]1O[C@H](CO)[C@@H](O)[C@H](O)[C@H]1F)CC2 [Col34, 2-fluoro-2-deoxy-D-glucoside]: < 6.00
- COc1cc2c(c(OC)c1OC)-c1ccc(OC)c(=O)cc1C(NC(=O)CN(OC)C1OC(C)C(O)C(O)C1O)CC2 [Col14, L-fucoside]: < 5.00

====

Tested on: MCF7
Test: Cytotoxicity assay (cell titer-glo and calcein AM), MCF7
Condition Info: read-out: Cytotoxicity IC50, MCF7, CTG, CTG (cell titer-glo) readout, % error in parentheses
pIC50: −log10 of the molar value.
Measurement Type: pIC50

• COc1cc2c(c(OC)c1OC)-c1ccc(OC)c(=O)cc1[C@@H](NC(=O)CN(OC)[C@H]1C[C@@H](O)[C@H](O)[C@@H](CO)O1)CC2 [Col16, 2-deoxy-D-glucoside] = 5.58
• CCCCCCCCCC(=O)NC[C@H]1O[C@@H](N(CC(=O)N[C@H]2CCc3cc(OC)c(OC)c(OC)c3-c3ccc(OC)c(=O)cc32)OC)[C@H](O)[C@@H](O)[C@@H]1O [Col59, 6-deoxy-6-N-decanoyl-D-glucosaminoside] = 5.26
• COc1cc2c(c(OC)c1OC)-c1ccc(OC)c(=O)cc1[C@@H](NC(=O)CN(OC)[C@@H]1O[C@H](CSC(C)=O)[C@H](O)[C@H](O)[C@H]1O)CC2 [Col68, 6-deoxy-6-thio-acyl-D-galactoside] = 5.62
• COc1cc2c(c(OC)c1OC)-c1ccc(OC)c(=O)cc1C(NC(=O)CN(OC)C1CC(O)C(O)C(C)O1)CC2 [Col65, D-Digitoxoside] = 6.02
• COc1cc2c(c(OC)c1OC)-c1ccc(OC)c(=O)cc1[C@@H](NC(=O)CN(OC)[C@@H]1O[C@H](CCl)[C@H](O)[C@H](O)[C@H]1O)CC2 [Col41, 6-deoxy-6-chloro-D-galactoside] = 5.47
• COc1cc2c(c(OC)c1OC)-c1ccc(OC)c(=O)cc1C(NC(=O)CN(OC)C1OCC(O)C(O)C1O)CC2 [Col7, L-lyxoside] = 5.58

Reference source: patent US20130012466A1
